Reported Ki against human PDE10A2 (Homo sapiens (Human), UniProt Q9Y233), gathered from multiple publications, appears below.
Binary call on Ki with cut-off 1 nM: strictly below means 1 (yes), and equality or higher means 0 (no).

Some solved entries appear below for comparison.
[
  {
    "compound": "COc1ccc([C@H]2C[C@@H]2COc2nc(C)ncc2-c2ccn(CCC#N)c(=O)c2)nc1",
    "target.of.assay": "human PDE10A2 (Homo sapiens (Human), UniProt Q9Y233)",
    "category.label": "1 (yes)"
  },
  {
    "compound": "Cc1ncc(-c2ccc(C(C)(C)O)nc2)c(OC[C@H]2C[C@@H]2c2ncccc2C)n1 (single isomer, unassigned)",
    "target.of.assay": "human PDE10A2 (Homo sapiens (Human), UniProt Q9Y233)",
    "category.label": "0 (no)"
  },
  {
    "compound": "Cc1nc(N2CC(c3nc4ccccc4[nH]3)C2)cc(-n2nc(C)nc2C)n1",
    "target.of.assay": "human PDE10A2 (Homo sapiens (Human), UniProt Q9Y233)",
    "category.label": "0 (no)"
  }
]

Next compound, please.
Find out if reported Ki for COc1ccc([C@H]2C[C@@H]2COc2nc(C)ncc2-c2ccc(-c3nc(CCl)no3)cc2)nc1 is less than 1 nM 0 (no)
